Measured on: ALK (Homo sapiens)
Sequence (Q9UM73 19-1620): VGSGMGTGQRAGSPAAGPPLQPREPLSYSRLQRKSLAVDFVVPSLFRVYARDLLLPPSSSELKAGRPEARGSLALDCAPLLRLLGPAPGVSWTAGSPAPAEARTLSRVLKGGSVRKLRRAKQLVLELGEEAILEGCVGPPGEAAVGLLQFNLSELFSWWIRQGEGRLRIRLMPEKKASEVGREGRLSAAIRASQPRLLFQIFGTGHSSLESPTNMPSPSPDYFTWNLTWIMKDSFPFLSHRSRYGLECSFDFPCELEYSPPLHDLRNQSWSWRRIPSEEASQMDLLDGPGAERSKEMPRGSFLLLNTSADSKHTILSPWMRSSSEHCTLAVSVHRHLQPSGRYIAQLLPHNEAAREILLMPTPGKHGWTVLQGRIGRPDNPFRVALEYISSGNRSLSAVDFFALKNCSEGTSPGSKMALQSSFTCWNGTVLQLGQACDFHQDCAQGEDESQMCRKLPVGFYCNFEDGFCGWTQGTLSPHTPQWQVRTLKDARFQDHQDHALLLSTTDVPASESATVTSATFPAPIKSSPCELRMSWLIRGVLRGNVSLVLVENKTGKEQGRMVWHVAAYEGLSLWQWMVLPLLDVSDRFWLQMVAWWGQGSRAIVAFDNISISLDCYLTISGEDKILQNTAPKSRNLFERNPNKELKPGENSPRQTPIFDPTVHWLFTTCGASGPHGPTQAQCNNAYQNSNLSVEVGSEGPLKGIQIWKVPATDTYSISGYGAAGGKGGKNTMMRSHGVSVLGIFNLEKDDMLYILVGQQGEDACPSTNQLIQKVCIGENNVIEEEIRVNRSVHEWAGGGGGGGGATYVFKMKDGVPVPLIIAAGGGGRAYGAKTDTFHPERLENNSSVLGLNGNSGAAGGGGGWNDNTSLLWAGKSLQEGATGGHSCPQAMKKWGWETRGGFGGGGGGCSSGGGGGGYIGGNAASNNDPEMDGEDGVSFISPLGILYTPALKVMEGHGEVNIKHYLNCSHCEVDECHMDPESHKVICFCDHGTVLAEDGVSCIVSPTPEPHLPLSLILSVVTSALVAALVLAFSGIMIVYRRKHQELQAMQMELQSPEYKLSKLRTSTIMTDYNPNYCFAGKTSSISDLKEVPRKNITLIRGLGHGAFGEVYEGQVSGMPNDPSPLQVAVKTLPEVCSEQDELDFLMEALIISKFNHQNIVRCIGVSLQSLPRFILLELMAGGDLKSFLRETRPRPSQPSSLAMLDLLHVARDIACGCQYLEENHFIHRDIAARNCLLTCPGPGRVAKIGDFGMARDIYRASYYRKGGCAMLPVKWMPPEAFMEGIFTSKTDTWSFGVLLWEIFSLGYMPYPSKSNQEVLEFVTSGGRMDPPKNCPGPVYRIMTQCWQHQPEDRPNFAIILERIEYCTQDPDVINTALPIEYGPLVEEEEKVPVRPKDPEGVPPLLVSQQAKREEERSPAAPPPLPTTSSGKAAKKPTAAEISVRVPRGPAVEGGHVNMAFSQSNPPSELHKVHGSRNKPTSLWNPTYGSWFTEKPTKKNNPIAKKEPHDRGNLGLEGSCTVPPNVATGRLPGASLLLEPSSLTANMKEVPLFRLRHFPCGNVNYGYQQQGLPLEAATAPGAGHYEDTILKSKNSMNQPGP
pIC50: −log10 of the molar value.
Experimental readout: pIC50

C[C@@H](Cc1c(F)c(F)cc(F)c1F)Nc1cc[nH]c(=O)c1-c1nc2cc3c(cc2[nH]1)C(=O)N(c1cccnc1)C3O (stereo partly shown) [Compound 13] | 7.82

---

Test details: Phase I microsome metabolic stability, rat
Run conditions: pH 7.4
Experimental readout: half-life at 0.5 μM

C[C@@H](Cc1c(F)c(F)cc(F)c1F)Nc1cc[nH]c(=O)c1-c1nc2cc3c(cc2[nH]1)CN(C1CCN(C)CC1)C3=O | > 2 h

---

Measured on: cMET (Homo sapiens, UniProt P08581)
Sequence (P08581 25-1390): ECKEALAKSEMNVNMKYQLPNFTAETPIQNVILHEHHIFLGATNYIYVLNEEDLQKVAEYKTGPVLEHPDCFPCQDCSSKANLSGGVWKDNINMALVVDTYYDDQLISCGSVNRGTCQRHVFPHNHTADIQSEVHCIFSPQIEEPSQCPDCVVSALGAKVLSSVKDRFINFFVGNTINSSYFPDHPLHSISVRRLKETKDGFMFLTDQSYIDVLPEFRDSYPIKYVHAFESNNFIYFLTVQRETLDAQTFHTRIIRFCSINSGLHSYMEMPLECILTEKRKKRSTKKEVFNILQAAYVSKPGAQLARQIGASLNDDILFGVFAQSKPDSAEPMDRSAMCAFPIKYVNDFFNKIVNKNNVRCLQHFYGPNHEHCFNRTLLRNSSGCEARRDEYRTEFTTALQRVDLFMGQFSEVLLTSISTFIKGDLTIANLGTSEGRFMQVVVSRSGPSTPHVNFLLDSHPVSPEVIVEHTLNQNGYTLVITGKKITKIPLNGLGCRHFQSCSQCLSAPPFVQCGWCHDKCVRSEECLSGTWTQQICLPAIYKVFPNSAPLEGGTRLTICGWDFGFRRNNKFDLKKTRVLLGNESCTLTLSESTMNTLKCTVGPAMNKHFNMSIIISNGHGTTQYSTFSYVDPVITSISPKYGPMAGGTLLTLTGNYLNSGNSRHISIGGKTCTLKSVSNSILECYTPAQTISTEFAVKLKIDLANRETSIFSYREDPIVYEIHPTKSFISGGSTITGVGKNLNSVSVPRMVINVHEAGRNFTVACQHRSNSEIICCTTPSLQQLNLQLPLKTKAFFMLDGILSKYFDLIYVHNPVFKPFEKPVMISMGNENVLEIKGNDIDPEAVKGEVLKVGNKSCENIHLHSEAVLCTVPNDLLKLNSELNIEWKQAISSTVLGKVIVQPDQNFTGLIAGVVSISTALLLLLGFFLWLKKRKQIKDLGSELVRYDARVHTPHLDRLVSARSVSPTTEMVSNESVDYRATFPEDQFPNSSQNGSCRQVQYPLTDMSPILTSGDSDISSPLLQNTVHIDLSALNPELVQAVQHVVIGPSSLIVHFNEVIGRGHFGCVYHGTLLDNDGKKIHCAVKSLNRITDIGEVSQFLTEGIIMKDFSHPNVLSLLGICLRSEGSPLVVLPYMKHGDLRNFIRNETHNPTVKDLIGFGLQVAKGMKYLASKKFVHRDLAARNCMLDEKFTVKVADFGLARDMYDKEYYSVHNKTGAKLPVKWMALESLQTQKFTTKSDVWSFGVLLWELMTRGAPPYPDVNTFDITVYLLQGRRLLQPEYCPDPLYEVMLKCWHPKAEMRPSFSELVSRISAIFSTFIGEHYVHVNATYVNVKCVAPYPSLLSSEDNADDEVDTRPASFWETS
pIC50: −log10 of the molar value.
Experimental readout: pIC50

C[C@@H](Cc1c(F)c(F)cc(F)c1F)Nc1cc[nH]c(=O)c1-c1nc2cc3c(cc2[nH]1)C(=O)N(c1ccc(F)nc1)C3=O | < 5.00

---

Test details: Caco-2 cell permeation study
Assay type: in vitro ADME
Run conditions: human, Caco-2; positive control run with the compound of that line, 10 μM
Experimental readout: Papp at 2 h, 10 μM

CC(C)NCC(O)COc1cccc2ccccc12 (stereo not shown) [Propranolol, reference compound] | 14 ×10⁻⁶ cm/s

---

Test details: Phase I microsome metabolic stability, rat
Run conditions: pH 7.4
Experimental readout: microsomal CLint at 0.5 μM

C[C@@H](Cc1c(F)c(F)cc(F)c1F)Nc1cc[nH]c(=O)c1-c1nc2cc3c(cc2[nH]1)CN(C1CCN(C)CC1)C3=O | < 5.8 µL/min/mg

---

System: NB-1 neuroblastoma cells
Test details: 3 day cell viability (WST-1), NB-1
Format: cell-based
Run conditions: 72 h, 3 days
pIC50: −log10 of the molar value.
Experimental readout: pIC50

C[C@@H](Cc1c(F)c(F)cc(F)c1F)Nc1cc[nH]c(=O)c1-c1nc2cc3c(cc2[nH]1)CN(C1CCN(C)CC1)C3=O | 6.59

---

Test details: Rat pharmacokinetics / bioavailability
Assay type: in vivo
Run conditions: male, Sprague-Dawley, plasma, iv, 10 mg/kg I.V., read-out: AUC0-1440 (converted)
Experimental readout: AUC(0-t) (ng·h/mL)

CC(Cc1cc(F)ccc1F)Nc1cc[nH]c(=O)c1-c1nc2cc3c(cc2[nH]1)CNC3=O (stereo not shown) [Compound 53] | 8850

---

Test details: in vitro
Run conditions: rat, pH 7.4
Experimental readout: half-life at 0.5 μM (min)

CC(Cc1cc(F)ccc1F)Nc1cc[nH]c(=O)c1-c1nc2cc3c(cc2[nH]1)CNC3=O (stereo not shown) | 8.88

---

Test details: Phase I microsome metabolic stability, human
Run conditions: pH 7.4
Experimental readout: microsomal CLint at 0.5 μM

C[C@@H](Cc1c(F)c(F)cc(F)c1F)Nc1cc[nH]c(=O)c1-c1nc2cc3c(cc2[nH]1)CN(C1CCN(C)CC1)C3=O [Compound 4] | < 5.8 µL/min/mg

---

Measured on: EML4-ALK R1275Q (Homo sapiens, UniProt Q9UM73, R1275Q)
Sequence (Q9UM73 1060-1620 R1275Q limits assumed): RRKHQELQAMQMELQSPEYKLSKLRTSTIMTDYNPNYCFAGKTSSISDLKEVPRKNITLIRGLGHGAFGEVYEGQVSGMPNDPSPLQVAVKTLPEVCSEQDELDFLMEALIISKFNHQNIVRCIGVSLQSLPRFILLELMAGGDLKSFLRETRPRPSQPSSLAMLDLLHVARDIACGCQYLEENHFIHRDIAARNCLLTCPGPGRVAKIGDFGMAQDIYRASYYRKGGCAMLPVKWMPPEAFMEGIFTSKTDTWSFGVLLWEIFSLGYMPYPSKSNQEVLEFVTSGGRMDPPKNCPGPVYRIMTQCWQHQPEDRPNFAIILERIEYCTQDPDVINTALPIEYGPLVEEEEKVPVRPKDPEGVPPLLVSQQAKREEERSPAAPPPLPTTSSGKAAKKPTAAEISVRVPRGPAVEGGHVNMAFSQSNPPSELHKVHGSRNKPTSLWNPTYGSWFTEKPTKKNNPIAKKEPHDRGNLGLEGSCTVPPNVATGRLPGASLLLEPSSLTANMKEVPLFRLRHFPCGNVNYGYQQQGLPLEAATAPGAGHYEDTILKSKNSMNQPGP
Test details: BaF3 stable clone growth (WST-1), EML4-ALK R1275Q
Run conditions: read-out: BaF3 Stables IC50 ± SEE, R1275Q; EML4-ALK construct
Experimental readout: IC50 (nM)

C[C@@H](Cc1c(F)c(F)cc(F)c1F)Nc1cc[nH]c(=O)c1-c1nc2cc3c(cc2[nH]1)CN(C1CCN(C)CC1)C3=O [Compound 4] | 2880
